Molecular target: TACE (Homo sapiens)
Construct: purchased Immunex
Sequence (P78536 215-824): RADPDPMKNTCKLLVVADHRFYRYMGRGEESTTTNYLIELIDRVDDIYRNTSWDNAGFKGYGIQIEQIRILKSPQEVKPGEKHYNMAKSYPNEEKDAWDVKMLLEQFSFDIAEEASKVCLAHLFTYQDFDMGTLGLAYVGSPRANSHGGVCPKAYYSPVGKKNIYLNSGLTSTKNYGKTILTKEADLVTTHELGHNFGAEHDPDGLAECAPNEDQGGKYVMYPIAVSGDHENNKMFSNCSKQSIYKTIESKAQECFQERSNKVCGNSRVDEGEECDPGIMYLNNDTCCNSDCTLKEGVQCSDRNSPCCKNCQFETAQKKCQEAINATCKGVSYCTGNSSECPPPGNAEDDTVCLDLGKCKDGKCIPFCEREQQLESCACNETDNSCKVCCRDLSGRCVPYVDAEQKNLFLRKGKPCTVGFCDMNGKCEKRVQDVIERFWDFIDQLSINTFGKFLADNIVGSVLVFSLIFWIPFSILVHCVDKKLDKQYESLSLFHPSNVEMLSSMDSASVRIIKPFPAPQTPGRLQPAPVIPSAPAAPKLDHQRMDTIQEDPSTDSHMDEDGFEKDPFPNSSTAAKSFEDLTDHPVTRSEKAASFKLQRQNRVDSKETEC
Assay: Procedure for Measuring TACE Inhibition (fluorescent peptidyl substrate)
Type: biochemical
Conditions: read-out: TACE IC 50
Exercise: for every item that follows, state its recorded pIC50.
One number for each entry, as −log10 of the molar value.

Please review the entries below; each comes with its answer.
CCCCCCC(Sc1nccn1C)C(=O)NO (stereo not drawn) [Example 39] : 7.16
CCCCCCC(Sc1ccc(OC)cc1)C(=O)NO (stereo not drawn) [Example 37] : 7.06

With those in mind, consider the next molecule.
Q: Specify reported pIC50 for the molecule shown: COc1ccc(S(=O)(=O)C2(C(=O)NO)CCN(Cc3ccc(Br)cc3)CC2)cc1 [Example 90]
Result: 7.14

Where do these numbers come from? They come from patent US6342508B1.
